tested system: Mu-type opioid receptor (Rattus norvegicus) (UniProt P33535)
Sequence (P33535 whole entry): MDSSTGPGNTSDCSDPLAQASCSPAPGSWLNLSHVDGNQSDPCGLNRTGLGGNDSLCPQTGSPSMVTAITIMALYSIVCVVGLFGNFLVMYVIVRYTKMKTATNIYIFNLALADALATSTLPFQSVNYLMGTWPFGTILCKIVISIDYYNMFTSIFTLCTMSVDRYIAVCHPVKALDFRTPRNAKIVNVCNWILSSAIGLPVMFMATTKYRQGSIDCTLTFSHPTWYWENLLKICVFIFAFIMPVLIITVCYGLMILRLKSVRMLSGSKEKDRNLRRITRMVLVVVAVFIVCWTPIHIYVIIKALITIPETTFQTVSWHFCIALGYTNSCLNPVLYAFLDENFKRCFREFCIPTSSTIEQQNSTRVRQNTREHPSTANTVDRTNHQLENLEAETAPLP
test: Agonist activity at rat mu opioid receptor expressed in rat C6 glioma cell membranes assessed as stimulation of [35S]GTPgammaS binding measured after 1 hr relative to DAMGO
Type: functional
measure: Efficacy

Worked cases, answers included:
[
  {
    "line notation": "Cc1cc(O)cc(C)c1C[C@H](N)C(=O)N[C@@H]1CCN(C(=O)C2CC2)c2ccc(Cc3cc4ccccc4o3)cc21.O=C(O)C(F)(F)F",
    "tested system": "Mu-type opioid receptor (Rattus norvegicus) (UniProt P33535)",
    "Efficacy": "89%"
  },
  {
    "line notation": "Cc1cc(O)cc(C)c1C[C@H](N)C(=O)N[C@@H]1CCN(S(C)(=O)=O)c2ccc(Cc3cnc4ccccc4c3)cc21.O=C(O)C(F)(F)F",
    "tested system": "Mu-type opioid receptor (Rattus norvegicus) (UniProt P33535)",
    "Efficacy": "96%"
  },
  {
    "line notation": "Cc1cc(O)cc(C)c1C[C@H](N)C(=O)N[C@@H]1CCN(C(=O)C2CC2)c2ccc(Cc3ccc4c(c3)OCCO4)cc21.O=C(O)C(F)(F)F",
    "tested system": "Mu-type opioid receptor (Rattus norvegicus) (UniProt P33535)",
    "Efficacy": "36%"
  },
  {
    "line notation": "Cc1cc(O)cc(C)c1C[C@H](N)C(=O)N[C@@H]1CCN(C(=O)C2CC2)c2ccc(CN3CCc4ccccc4C3)cc21.O=C(O)C(F)(F)F",
    "tested system": "Mu-type opioid receptor (Rattus norvegicus) (UniProt P33535)",
    "Efficacy": "95%"
  },
  {
    "line notation": "Cc1cc(O)cc(C)c1C[C@H](N)C(=O)N[C@@H]1CCN(C(=O)c2ccccc2)c2ccc(Cc3cc4ccccc4o3)cc21.O=C(O)C(F)(F)F",
    "tested system": "Mu-type opioid receptor (Rattus norvegicus) (UniProt P33535)",
    "Efficacy": "58 to 64%"
  },
  {
    "line notation": "Cc1cc(O)cc(C)c1C[C@H](N)C(=O)N[C@@H]1CCNc2ccc(Cc3ccc4c(c3)OCCO4)cc21.O=C(O)C(F)(F)F",
    "tested system": "Mu-type opioid receptor (Rattus norvegicus) (UniProt P33535)",
    "Efficacy": "88%"
  },
  {
    "line notation": "Cc1cc(O)cc(C)c1C[C@H](N)C(=O)N[C@@H]1CCN(S(C)(=O)=O)c2ccc(CN3CCc4ccccc4C3)cc21.O=C(O)C(F)(F)F",
    "tested system": "Mu-type opioid receptor (Rattus norvegicus) (UniProt P33535)",
    "Efficacy": "114%"
  },
  {
    "line notation": "Cc1cc(O)cc(C)c1C[C@H](N)C(=O)N[C@@H]1CCN(C(=O)C2CC2)c2ccc(Cc3ccc4ccccc4c3)cc21",
    "tested system": "Mu-type opioid receptor (Rattus norvegicus) (UniProt P33535)",
    "Efficacy": "85%"
  },
  {
    "line notation": "Cc1cc(O)cc(C)c1C[C@H](N)C(=O)N[C@@H]1CCN(C(=O)c2ccccc2)c2ccc(Cc3cnc4ccccc4c3)cc21.O=C(O)C(F)(F)F",
    "tested system": "Mu-type opioid receptor (Rattus norvegicus) (UniProt P33535)",
    "Efficacy": "43%"
  },
  {
    "line notation": "Cc1cc(O)cc(C)c1C[C@H](N)C(=O)N[C@@H]1CCNc2ccc(CN3CCc4ccccc4C3)cc21.O=C(O)C(F)(F)F",
    "tested system": "Mu-type opioid receptor (Rattus norvegicus) (UniProt P33535)",
    "Efficacy": "105%"
  }
]

# get_value(readout='Efficacy', item= "Cc1cc(O)cc(C)c1C[C@H](N)C(=O)N[C@@H]1CCN(S(C)(=O)=O)c2ccc(Cc3ccccc3)cc21.O=C(O)C(F)(F)F" )
98%

# get_value(readout='Efficacy', item= "Cc1cc(O)cc(C)c1C[C@H](N)C(=O)N[C@@H]1CCN(C(=O)c2ccccc2)c2ccc(CN3CCc4ccccc4C3)cc21.O=C(O)C(F)(F)F" )
93%

# get_value(readout='Efficacy', item= "CC(=O)N1CC[C@@H](NC(=O)[C@@H](N)Cc2c(C)cc(O)cc2C)c2cc(CN3CCc4ccccc4C3)ccc21.O=C(O)C(F)(F)F" )
96%

# get_value(readout='Efficacy', item= "Cc1cc(O)cc(C)c1C[C@H](N)C(=O)N[C@@H]1CCN(C(=O)C2CC2)c2ccc(Cc3cnc4ccccc4c3)cc21.O=C(O)C(F)(F)F" )
47%

Values compiled from ChEMBL document CHEMBL4433205.
